Every entry's value here was drawn from PubChem BioAssay AID1259415.

assay-summary: qHTS Assay for inhibitors of the human cytomegalovirus (HCMV)
condition-label: HFF cells, HCMV-luciferase reporter, 72 h; at 57.5 µM
Experimental: NCGC Assay Overview: Infection with human cytomegalovirus (HCMV) continues to pose significant threats for pregnant women and immunocompromised hosts. […] This is a cell-based assay for HCMV inhibition in HFFs cells. […] At 72 h post infection cell lysates were collected and luciferase activity was determined using the Glomax-Multi + Detection System (Promega, Madison, WI). […]
The campaign covered roughly 410,000 compounds. About 18,000 (4.4%) were called active. Inconclusive results (about 7%) are left out. Rule as the data show it: active = activity change below about -60%; inconclusive = no clear call, values can overlap the other calls; inactive = above about -39%. For the sample, actives were picked, then their nearest neighbours and some compounds at random.
Reply using exactly one outcome from true for active, false for inactive

So what was the verdict on CCOC(=O)[C@]12Cc3cc(OC)ccc3[C@H]1N(C(C)C)C(=O)c1ccccc12 in this test?
true

So what was the verdict on C=CCOC(=O)C1=C[C@@H](c2ccc3c(c2)OCO3)C[C@@H](OCCCCO)O1 in this test?
false

So what was the verdict on Cc1[nH]c2ccccc2c1C(=O)C(=O)NCc1nnnn1-c1cccc(F)c1 in this test?
false
